- measurement.parameters: 353.15 K; 101 kPa; Liquid; Vibrating tube method
observed.property: mass density (kg/m3)

OCCO	1070.17
CCn1cc[n+](C)c1.F[B-](F)(F)F [1-ethyl-3-methylimidazolium tetrafluoroborate]	1245.87
C1COCCO1	964.63
CCCCn1cc[n+](C)c1.F[B-](F)(F)F [1-butyl-3-methylimidazolium tetrafluoroborate]	1162.44

###

- measurement.parameters: 313.15 K; 101 kPa; Liquid; Vibrating tube method
observed.property: mass density (kg/m3)

CCCCn1cc[n+](C)c1.F[B-](F)(F)F [1-butyl-3-methylimidazolium tetrafluoroborate]	1190.27
CCn1cc[n+](C)c1.F[B-](F)(F)F [1-ethyl-3-methylimidazolium tetrafluoroborate]	1275.45
C1COCCO1	1010.91
OCCO	1099.38

###

- measurement.parameters: 323.15 K; 101 kPa; Liquid; Vibrating tube method
observed.property: mass density (kg/m3)

CCCCn1cc[n+](C)c1.F[B-](F)(F)F [1-butyl-3-methylimidazolium tetrafluoroborate]	1183.24
CCn1cc[n+](C)c1.F[B-](F)(F)F [1-ethyl-3-methylimidazolium tetrafluoroborate]	1267.97
OCCO	1092.24
C1COCCO1	999.49

###

- assay.comment: refractive index (Na D-line) (dimensionless)
- measurement.parameters: 303.15 K; 101.33 kPa; Liquid; Standard Abbe refractometry
observed.property: refractive index

C1COCCO1 [1,4-dioxane]	1.4171
CCCCn1cc[n+](C)c1.F[B-](F)(F)F [1-butyl-3-methylimidazolium tetrafluoroborate]	1.4202
OCCO [1,2-ethanediol]	1.4285
CCn1cc[n+](C)c1.F[B-](F)(F)F [1-ethyl-3-methylimidazolium tetrafluoroborate]	1.41

###

- assay.comment: refractive index (Na D-line) (dimensionless)
- measurement.parameters: 323.15 K; 101.33 kPa; Liquid; Standard Abbe refractometry
observed.property: refractive index

CCCCn1cc[n+](C)c1.F[B-](F)(F)F [1-butyl-3-methylimidazolium tetrafluoroborate]	1.4153
OCCO [1,2-ethanediol]	1.4229
C1COCCO1 [1,4-dioxane]	1.4063
CCn1cc[n+](C)c1.F[B-](F)(F)F [1-ethyl-3-methylimidazolium tetrafluoroborate]	1.4051

###

- assay.comment: refractive index (Na D-line) (dimensionless)
- measurement.parameters: 298.15 K; 101.33 kPa; Liquid; Standard Abbe refractometry
observed.property: refractive index

CCn1cc[n+](C)c1.F[B-](F)(F)F [1-ethyl-3-methylimidazolium tetrafluoroborate]	1.4111
OCCO	1.43
C1COCCO1	1.4205
CCCCn1cc[n+](C)c1.F[B-](F)(F)F [1-butyl-3-methylimidazolium tetrafluoroborate]	1.4215

###

- assay.comment: refractive index (Na D-line) (dimensionless)
- measurement.parameters: 313.15 K; 101.33 kPa; Liquid; Standard Abbe refractometry
observed.property: refractive index

C1COCCO1	1.4112
OCCO	1.4258
CCn1cc[n+](C)c1.F[B-](F)(F)F [1-ethyl-3-methylimidazolium tetrafluoroborate]	1.4073
CCCCn1cc[n+](C)c1.F[B-](F)(F)F [1-butyl-3-methylimidazolium tetrafluoroborate]	1.4179

###

- measurement.parameters: 333.15 K; 101 kPa; Liquid; Vibrating tube method
observed.property: mass density (kg/m3)

C1COCCO1 [1,4-dioxane]	987.97
OCCO [1,2-ethanediol]	1085
CCCCn1cc[n+](C)c1.F[B-](F)(F)F [1-butyl-3-methylimidazolium tetrafluoroborate]	1176.25
CCn1cc[n+](C)c1.F[B-](F)(F)F [1-ethyl-3-methylimidazolium tetrafluoroborate]	1260.55

Hello, the source for this data is the NIST ThermoML archive (doi:10.1021/je400659p), in case you need it.
